testSystem: D(2) dopamine receptor (Rattus norvegicus, UniProt P61169)
Sequence (P61169 whole entry): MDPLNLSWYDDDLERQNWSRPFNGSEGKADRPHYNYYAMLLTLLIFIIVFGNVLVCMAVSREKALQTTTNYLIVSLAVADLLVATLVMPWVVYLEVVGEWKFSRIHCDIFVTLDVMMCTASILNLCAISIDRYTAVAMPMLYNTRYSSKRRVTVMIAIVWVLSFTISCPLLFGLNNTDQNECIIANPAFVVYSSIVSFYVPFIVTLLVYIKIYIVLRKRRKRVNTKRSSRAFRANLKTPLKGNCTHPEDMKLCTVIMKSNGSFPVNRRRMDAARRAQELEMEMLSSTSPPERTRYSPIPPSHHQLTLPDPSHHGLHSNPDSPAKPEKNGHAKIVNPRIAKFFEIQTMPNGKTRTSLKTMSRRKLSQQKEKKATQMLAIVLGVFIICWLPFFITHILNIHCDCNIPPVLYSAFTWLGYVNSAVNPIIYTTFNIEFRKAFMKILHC
measurementNotes: Evaluated for its ability to displace tritiated receptor ligand in rat striatal membranes 3[H]spiperone, a dopamine antagonist
Format: functional, cell membranes, Striatum, Membrane
measurementKind: IC50 (nM)
// note: answer is a bare numeric in nM

// field: IC50; key: C1=C(c2ccccc2)CCN(CCCCc2c[nH]c3ccccc23)C1 ; value = 105

// field: IC50; key: COc1ccc(C2=CCN(CCCCc3c[nH]c4ccccc34)CC2)cc1 ; value = 700

// field: IC50; key: COc1ccc2[nH]cc(CCCCN3CC=C(c4ccccc4)CC3)c2c1 ; value = 20

// field: IC50; key: Cc1[nH]c2ccccc2c1CCCCN1CC=C(c2ccccc2)CC1 ; value = 50

// field: IC50; key: C1=C(c2ccccc2)CCN(CCc2c[nH]c3ccccc23)C1 ; value = 100

// field: IC50; key: Clc1ccc(C2=CCN(CCCCc3c[nH]c4ccccc34)CC2)cc1 ; value = 100

// field: IC50; key: Cn1cc(CCCCN2CC=C(c3ccccc3)CC2)c2ccccc21 ; value = 100

// field: IC50; key: C1=C(c2ccccc2)CCN(CCCCCc2c[nH]c3ccccc23)C1 ; value = 60
